Molecular target: T1, human HGF (human, UniProt P14210 32-728)
T1 construct: also called hepatocyte growth factor
T1 sequence (P14210 32-728 limits assumed): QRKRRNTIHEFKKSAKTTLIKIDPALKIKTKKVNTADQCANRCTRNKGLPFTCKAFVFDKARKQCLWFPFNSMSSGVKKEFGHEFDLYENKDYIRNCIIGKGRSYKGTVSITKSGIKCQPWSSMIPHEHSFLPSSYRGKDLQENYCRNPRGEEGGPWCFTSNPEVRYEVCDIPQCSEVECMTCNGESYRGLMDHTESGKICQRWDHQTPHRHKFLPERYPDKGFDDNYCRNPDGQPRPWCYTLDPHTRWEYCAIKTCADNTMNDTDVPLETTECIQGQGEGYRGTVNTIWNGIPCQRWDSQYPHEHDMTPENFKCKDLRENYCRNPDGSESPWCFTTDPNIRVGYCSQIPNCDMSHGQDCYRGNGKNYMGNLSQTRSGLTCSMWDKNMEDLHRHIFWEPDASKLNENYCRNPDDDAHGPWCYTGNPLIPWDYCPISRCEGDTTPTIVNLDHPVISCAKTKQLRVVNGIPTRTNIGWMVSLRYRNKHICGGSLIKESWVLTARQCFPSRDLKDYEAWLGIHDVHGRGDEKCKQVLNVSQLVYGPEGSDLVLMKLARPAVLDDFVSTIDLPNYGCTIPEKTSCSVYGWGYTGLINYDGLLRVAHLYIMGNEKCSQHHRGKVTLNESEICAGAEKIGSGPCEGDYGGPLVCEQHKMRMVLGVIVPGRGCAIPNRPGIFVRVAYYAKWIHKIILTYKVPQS
Assay: SPR (ProteOn)
PARAMETER MEASURED: pKd
pKd field: float, defined as -log10 of concentration (mol/L).

Look over these answered cases.
BINDER	ENDPOINT RESULT
Protein #26 (designed binder) MRGSHHHHHHGSDLGKKLLEAARAGQDDEVRILLKAGADVNAKDRYGDTPLHLAADIGHLEIVEVLLKAGADVNAEDYFGNTPLHLAASYGHLEIVEVLLKAGADVNAKDDYGNTPLHLAANTGHLEIVEVLLKAGADVNAQDKSGKTPADLAADAGHEDIAEVLQKAA	10.29
Protein #23 (designed binder) MRGSHHHHHHGSDLGKKLLEAARAGQDDEVRILMANGADVNAKDRFGDTPLHLAADIGHLKIVEVLLKHGADVNAEDWFGNTPLHLAASMGHLEIVEVLLKYGADVNAMDDYGNTPLHLAANTGHLEIVEVLLKHGADVNAQDKFGKTAFDISIDNGNEDLAEILQKAA	10.80
Protein #27 (designed binder) MRGSHHHHHHGSDLGKKLLEAARAGQDDEVRILLKAGADVNAKDRYGDTPLHLAADAGHLKIVEVLLKAGADVNAEDYFGNTPLHLAASAGHLEIVEVLLKAGADVNAKDDAGNTPLHLAANTGHLKIVEVLLKAGADVNAQDKSGKTPADLAADAGHEDIAEVLQKAA	9.89
Protein #28 (designed binder) MRGSHHHHHHGSDLGMKLLEAARAGQDDEVRILMANGADVNAHDTWGLTPLHLAAFHGHQEIVEVLLKHGADVNAQDFYGKTPLHLAALRGHLEIVEVLLKYGADVNAQDQFGKTAFDISIDNGNEDLAEILQKAA	10.59
Protein #25 (designed binder) MRGSHHHHHHGSDLGKKLLEAARAGQDDEVRILMANGADVNAKDRYGDTPLHLAADIGHLEIVEVLLKAGADVNAEDYFGNTPLHLAASYGHLEIVEVLLKAGADVNAKDDYGNTPLHLAANTGHLEIVEVLLKAGADVNAQDKSGKTPADLAADAGHEDIAEVLQKAA	10.18
Protein #29 (designed binder) MRGSHHHHHHGSDLGKKLLEAARAGQDDEVRILMANGADVNAKYEDGLTPLHLAAFYGHLEIVEVLLKHGADVNATDAWGHTPLHLAAYYGHLEIVEVLLKYGADVNTHDKEGMTALHLAALTGHLEIVEVLLKNGADVNAQDKFGKTAFDISIDNGNEDLAEILQKAA	10.60

Quick note, pKd for Protein #24 (designed binder) MRGSHHHHHHGSDLGKKLLEAARAGQDDEVRILMANGADVNAKDRFGDTPLHLAADIGHLEIVEVLLKAGADVNAKDWFGNTPLHLAASFGHLEIVEVLLKAGADVNAKDDYGNTPLHLAANTGHLEIVEVLLKAGADVNAQDKFGKTAFDISIDNGNEDLAEILQKAA landed at 9.79

All values here come from patent US20160289285A1.
